Details: in ethanol, 326.35 K
Parameter: solubility (mole fraction)

[[record]]
chemical_string = "O=[N+]([O-])c1cc([N+](=O)[O-])c(O)c(Cl)c1O"
numeric_result = 0.00882


----------
Settings: in ethanol, 317.65 K
Parameter: solubility (mole fraction)

[[record]]
chemical_string = "O=[N+]([O-])c1cc([N+](=O)[O-])c(O)c(Cl)c1O"
numeric_result = 0.00648


----------
Conditions: in acetic acid, 299.35 K
Parameter: solubility (mole fraction)

[[record]]
chemical_string = "O=[N+]([O-])c1cc([N+](=O)[O-])c(O)c(Cl)c1O"
result = 0.00649

